- Tested on: B16-F10 cells
- method_notes: Cell proliferation assay (CellTiter-Glo) in IFN-gamma treated B16-F10 cells
- Type: cell-based
- run_parameters: 120 h, mouse IFN-gamma 10 ng/mL, read-out: PTPN2 Prolif 5d B16F10 EC50
readout_type: EC50 (µM)

Would you please look over these solved cases?
molecule: O=C1CN(c2c(O)cc(CN3CCC(F)CC3)cc2F)S(=O)(=O)N1
EC50 [µM]: 4.72
//
molecule: O=C1CN(c2c(O)cc(CNC3CCCCC3)cc2F)S(=O)(=O)N1
EC50 [µM]: 1.72

a = O=C1CN(c2c(O)cc(C3CCCNC3)cc2F)S(=O)(=O)N1 (stereo not drawn)
b = CCN1CCC(NCc2cc(O)c(N3CC(=O)NS3(=O)=O)c(F)c2)CC1
Consider entries a and b . Which has the numerically lower EC50? Pick one and reply with its label. a
